# assay_method_text: Solid state by X-ray powder diffraction
# Format: physicochemical
# measurement_conditions: * indicates absence of crystalline API
Structures can show the parent of a compound that is named as a salt.
value_type: Polymorphy (X-Ray)

compound	observed_result
CC(C)NC[C@@H](C(=O)N1CCN(c2ncnc3c2[C@H](C)C[C@H]3O)CC1)c1ccc(Cl)cc1 [BS1506SA08, ipatasertib monohydrochloride]	amorphous*
CC(C)NC[C@@H](C(=O)N1CCN(c2ncnc3c2[C@H](C)C[C@H]3O)CC1)c1ccc(Cl)cc1 [BS1506SA03, ipatasertib monohydrochloride]	amorphous*
CC(C)NC[C@@H](C(=O)N1CCN(c2ncnc3c2[C@H](C)C[C@H]3O)CC1)c1ccc(Cl)cc1 [BS1506SA01, ipatasertib monohydrochloride]	amorphous*

----------
# assay_method_text: Shear cell testing with Ring Shear Tester RST-XS
# Format: physicochemical
# measurement_conditions: Pre-shear stress 1000 PA, 30 mL shear cell; monohydrochloride
Counter-ions that a name gives are not always drawn.

compound	Consolidation stress (σ1)
CC(C)NC[C@@H](C(=O)N1CCN(c2ncnc3c2[C@H](C)C[C@H]3O)CC1)c1ccc(Cl)cc1 [Composition 140910417, ipatasertib monohydrochloride]	1726 PA
CC(C)NC[C@@H](C(=O)N1CCN(c2ncnc3c2[C@H](C)C[C@H]3O)CC1)c1ccc(Cl)cc1 [BS1506SA04, ipatasertib monohydrochloride]	1707 PA
CC(C)NC[C@@H](C(=O)N1CCN(c2ncnc3c2[C@H](C)C[C@H]3O)CC1)c1ccc(Cl)cc1 [BS1506SA06, ipatasertib monohydrochloride]	1683 PA

----------
Measured Particle size d90 accompanies every entry in the list below.
# assay_method_text: Particle size distribution (d10, d50, d90) by laser diffraction
# Format: physicochemical
# measurement_conditions: spray-dried amorphous ipatasertib monohydrochloride, rotary wheel atomizer
# Source text: FIG. 6 illustrates particle size distribution of the material of Example 6C (Batch HQ00003) spray dried with two-feed nozzle as obtained by laser diffraction A bimodal particle size distribution is obvious. […]
Where a name gives a salt, the structure may show the parent alone.

compound	unit_tag	Particle size d90
CC(C)NC[C@@H](C(=O)N1CCN(c2ncnc3c2[C@H](C)C[C@H]3O)CC1)c1ccc(Cl)cc1 [BS1506SA02, ipatasertib monohydrochloride]	μm	64
CC(C)NC[C@@H](C(=O)N1CCN(c2ncnc3c2[C@H](C)C[C@H]3O)CC1)c1ccc(Cl)cc1 [BS1506SA04, ipatasertib monohydrochloride]	μm	62
CC(C)NC[C@@H](C(=O)N1CCN(c2ncnc3c2[C@H](C)C[C@H]3O)CC1)c1ccc(Cl)cc1 [BS1506SA08, ipatasertib monohydrochloride]	μm	68
CC(C)NC[C@@H](C(=O)N1CCN(c2ncnc3c2[C@H](C)C[C@H]3O)CC1)c1ccc(Cl)cc1 [BS1506SA07, ipatasertib monohydrochloride]	μm	65
CC(C)NC[C@@H](C(=O)N1CCN(c2ncnc3c2[C@H](C)C[C@H]3O)CC1)c1ccc(Cl)cc1 [BS1506SA01, ipatasertib monohydrochloride]	μm	64
CC(C)NC[C@@H](C(=O)N1CCN(c2ncnc3c2[C@H](C)C[C@H]3O)CC1)c1ccc(Cl)cc1 [BS1506SA05, ipatasertib monohydrochloride]	μm	65
CC(C)NC[C@@H](C(=O)N1CCN(c2ncnc3c2[C@H](C)C[C@H]3O)CC1)c1ccc(Cl)cc1 [BS1506SA06, ipatasertib monohydrochloride]	μm	63
CC(C)NC[C@@H](C(=O)N1CCN(c2ncnc3c2[C@H](C)C[C@H]3O)CC1)c1ccc(Cl)cc1 [BS1506SA03, ipatasertib monohydrochloride]	μm	62

----------
// Particle size d10 lookup, one value per entry
# assay_method_text: Particle size distribution (d10, d50, d90) by laser diffraction
# Assay type: physicochemical
# measurement_conditions: spray-dried amorphous ipatasertib monohydrochloride, rotary wheel atomizer
Structures can show the parent of a compound that is named as a salt.

molecule	Particle size d10 (μm)
CC(C)NC[C@@H](C(=O)N1CCN(c2ncnc3c2[C@H](C)C[C@H]3O)CC1)c1ccc(Cl)cc1 [BS1506SA05, ipatasertib monohydrochloride]	13
CC(C)NC[C@@H](C(=O)N1CCN(c2ncnc3c2[C@H](C)C[C@H]3O)CC1)c1ccc(Cl)cc1 [BS1506SA08, ipatasertib monohydrochloride]	13
CC(C)NC[C@@H](C(=O)N1CCN(c2ncnc3c2[C@H](C)C[C@H]3O)CC1)c1ccc(Cl)cc1 [BS1506SA06, ipatasertib monohydrochloride]	12
CC(C)NC[C@@H](C(=O)N1CCN(c2ncnc3c2[C@H](C)C[C@H]3O)CC1)c1ccc(Cl)cc1 [BS1506SA01, ipatasertib monohydrochloride]	11
CC(C)NC[C@@H](C(=O)N1CCN(c2ncnc3c2[C@H](C)C[C@H]3O)CC1)c1ccc(Cl)cc1 [BS1506SA02, ipatasertib monohydrochloride]	11
CC(C)NC[C@@H](C(=O)N1CCN(c2ncnc3c2[C@H](C)C[C@H]3O)CC1)c1ccc(Cl)cc1 [BS1506SA07, ipatasertib monohydrochloride]	13
CC(C)NC[C@@H](C(=O)N1CCN(c2ncnc3c2[C@H](C)C[C@H]3O)CC1)c1ccc(Cl)cc1 [BS1506SA04, ipatasertib monohydrochloride]	11
CC(C)NC[C@@H](C(=O)N1CCN(c2ncnc3c2[C@H](C)C[C@H]3O)CC1)c1ccc(Cl)cc1 [BS1506SA03, ipatasertib monohydrochloride]	12

----------
# assay_method_text: Particle size distribution (d10, d50, d90) by laser diffraction
# Format: physicochemical
# measurement_conditions: spray dried amorphous ipatasertib monohydrochloride powder
Structures can show the parent of a compound that is named as a salt.
Particle size d10 overview

molecule	unit_tag	Particle size d10
CC(C)NC[C@@H](C(=O)N1CCN(c2ncnc3c2[C@H](C)C[C@H]3O)CC1)c1ccc(Cl)cc1 [Composition 130710451, ipatasertib monohydrochloride]	μm	17
CC(C)NC[C@@H](C(=O)N1CCN(c2ncnc3c2[C@H](C)C[C@H]3O)CC1)c1ccc(Cl)cc1 [Composition 140110408, ipatasertib monohydrochloride]	μm	9.3
CC(C)NC[C@@H](C(=O)N1CCN(c2ncnc3c2[C@H](C)C[C@H]3O)CC1)c1ccc(Cl)cc1 [Composition 141210421, ipatasertib monohydrochloride]	μm	10
CC(C)NC[C@@H](C(=O)N1CCN(c2ncnc3c2[C@H](C)C[C@H]3O)CC1)c1ccc(Cl)cc1 [Composition 140910419, ipatasertib monohydrochloride]	μm	11

----------
# assay_method_text: Solid state by X-ray powder diffraction
# Format: physicochemical
# measurement_conditions: * indicates absence of crystalline API; monohydrochloride
Where a name gives a salt, the structure may show the parent alone.
value_type: Solid state / Polymorphy (X-Ray, XRPD)

compound	observed_result
CC(C)NC[C@@H](C(=O)N1CCN(c2ncnc3c2[C@H](C)C[C@H]3O)CC1)c1ccc(Cl)cc1 [Composition 141210423, ipatasertib monohydrochloride]	amorph.*
CC(C)NC[C@@H](C(=O)N1CCN(c2ncnc3c2[C@H](C)C[C@H]3O)CC1)c1ccc(Cl)cc1 [Composition 140110410, ipatasertib monohydrochloride]	amorphous*
CC(C)NC[C@@H](C(=O)N1CCN(c2ncnc3c2[C@H](C)C[C@H]3O)CC1)c1ccc(Cl)cc1 [Composition 140210413, ipatasertib monohydrochloride]	amorphous*
CC(C)NC[C@@H](C(=O)N1CCN(c2ncnc3c2[C@H](C)C[C@H]3O)CC1)c1ccc(Cl)cc1 [Composition 140110408, ipatasertib monohydrochloride]	amorphous*
CC(C)NC[C@@H](C(=O)N1CCN(c2ncnc3c2[C@H](C)C[C@H]3O)CC1)c1ccc(Cl)cc1 [Composition 141210424, ipatasertib monohydrochloride]	amorph.*
CC(C)NC[C@@H](C(=O)N1CCN(c2ncnc3c2[C@H](C)C[C@H]3O)CC1)c1ccc(Cl)cc1 [Composition 140110404, ipatasertib monohydrochloride]	amorphous*
CC(C)NC[C@@H](C(=O)N1CCN(c2ncnc3c2[C@H](C)C[C@H]3O)CC1)c1ccc(Cl)cc1 [Composition 130710450, ipatasertib monohydrochloride]	Amorphous*
CC(C)NC[C@@H](C(=O)N1CCN(c2ncnc3c2[C@H](C)C[C@H]3O)CC1)c1ccc(Cl)cc1 [Composition 140110407, ipatasertib monohydrochloride]	amorphous*
CC(C)NC[C@@H](C(=O)N1CCN(c2ncnc3c2[C@H](C)C[C@H]3O)CC1)c1ccc(Cl)cc1 [Composition 140110401, ipatasertib monohydrochloride]	amorphous*
CC(C)NC[C@@H](C(=O)N1CCN(c2ncnc3c2[C@H](C)C[C@H]3O)CC1)c1ccc(Cl)cc1 [Composition 130810454, ipatasertib monohydrochloride]	Amorphous*

----------
# assay_method_text: Shear cell testing with Ring Shear Tester RST-XS
# Assay type: physicochemical
# measurement_conditions: Pre-shear stress 1000 PA, 30 mL shear cell; monohydrochloride
Where a name gives a salt, the structure may show the parent alone.

molecule	Flow Function Constant (ffc)
CC(C)NC[C@@H](C(=O)N1CCN(c2ncnc3c2[C@H](C)C[C@H]3O)CC1)c1ccc(Cl)cc1 [Composition 140910419, ipatasertib monohydrochloride]	3.5
CC(C)NC[C@@H](C(=O)N1CCN(c2ncnc3c2[C@H](C)C[C@H]3O)CC1)c1ccc(Cl)cc1 [BS1506SA05, ipatasertib monohydrochloride]	3.5
CC(C)NC[C@@H](C(=O)N1CCN(c2ncnc3c2[C@H](C)C[C@H]3O)CC1)c1ccc(Cl)cc1 [BS1506SA07, ipatasertib monohydrochloride]	3.1
CC(C)NC[C@@H](C(=O)N1CCN(c2ncnc3c2[C@H](C)C[C@H]3O)CC1)c1ccc(Cl)cc1 [BS1506SA03, ipatasertib monohydrochloride]	2.9
CC(C)NC[C@@H](C(=O)N1CCN(c2ncnc3c2[C@H](C)C[C@H]3O)CC1)c1ccc(Cl)cc1 [BS1506SA04, ipatasertib monohydrochloride]	3.2
CC(C)NC[C@@H](C(=O)N1CCN(c2ncnc3c2[C@H](C)C[C@H]3O)CC1)c1ccc(Cl)cc1 [BS1506SA06, ipatasertib monohydrochloride]	3.2
